Quick list: IC50 per entry.
target: Recombinant STAT3 protein (STAT3 (G127-I722)) (Homo sapiens); construct: Recombinant STAT3 protein (STAT3 (G127-I722)); assay: STAT3 Fluorescence Polarization (FP) Assay; assay type: binding; settings: STAT3 (G127-I722) 25 nM, probe 5-FAM-GpYLPQTV-NH2 2 nM, 45-minute incubation; read-out: STAT3 (FP assay IC50 class)

compound `CC[C@H]1CC[C@H](NC(=O)c2cc3cc([C@H](F)P(=O)(O)O)ccc3s2)C(=O)N2[C@H](CC[C@H]2C(=O)N2CC(c3cnccc3N3CCC3)C2)C1` , IC50 observed: < 100 nM

// sample COc1c(C2CN(C(=O)[C@@H]3CC[C@@H]4CCC[C@H](NC(=O)c5cc6cc(C(F)P(=O)(O)O)ccc6s5)C(=O)N43)C2)ccnc1C#N (stereo partly drawn) , its IC50 was < 100 nM

Form: compound = `O=C(N[C@H]1CCCC[C@H]2CC[C@@H](C(=O)NCc3cnc4[nH]cnc4c3)N2C1=O)c1cc2cc(CP(=O)(O)O)ccc2s1` ; IC50 = 100 to 1000 nM

====

Examples of molecules with documented IC50 follow.
target: pY705-STAT3 in PBMC (Homo sapiens); construct: Cryopreserved Peripheral Blood Mononuclear Cells (PBMC) are from AllCells; host or cells: cryopreserved PBMC; assay: MSD-pSTAT-PBMC Assay (pSTAT3, IL-6 stimulated); format: cell-based; settings: PBMC, compound 3 hrs, then 10 ng/mL IL-6 for 10 min; Table 115; read-out: STAT3
Sequence (P40763 whole entry): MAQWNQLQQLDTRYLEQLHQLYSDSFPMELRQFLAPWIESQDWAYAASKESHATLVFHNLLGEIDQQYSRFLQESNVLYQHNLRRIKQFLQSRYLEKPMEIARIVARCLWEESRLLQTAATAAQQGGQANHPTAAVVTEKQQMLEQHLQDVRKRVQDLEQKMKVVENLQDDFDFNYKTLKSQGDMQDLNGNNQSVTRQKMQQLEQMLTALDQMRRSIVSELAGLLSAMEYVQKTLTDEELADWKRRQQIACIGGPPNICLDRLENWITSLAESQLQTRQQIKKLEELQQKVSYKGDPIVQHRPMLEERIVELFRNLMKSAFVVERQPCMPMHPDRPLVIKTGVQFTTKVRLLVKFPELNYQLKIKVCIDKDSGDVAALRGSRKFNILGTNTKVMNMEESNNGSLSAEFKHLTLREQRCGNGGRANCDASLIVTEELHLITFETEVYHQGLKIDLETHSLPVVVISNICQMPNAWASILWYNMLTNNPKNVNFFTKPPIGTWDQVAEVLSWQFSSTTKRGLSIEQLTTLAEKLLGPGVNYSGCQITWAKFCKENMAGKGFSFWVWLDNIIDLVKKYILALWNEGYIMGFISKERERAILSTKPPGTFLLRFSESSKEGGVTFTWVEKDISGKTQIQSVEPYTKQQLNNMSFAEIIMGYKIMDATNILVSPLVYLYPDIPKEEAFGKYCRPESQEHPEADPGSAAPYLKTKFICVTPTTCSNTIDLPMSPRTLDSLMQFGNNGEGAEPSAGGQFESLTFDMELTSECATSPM

Here is how some molecules turned out for IC50.
O=C(Cc1ccccc1)SCCOP(=O)(OCCSC(=O)Cc1ccccc1)C(F)(F)c1ccc2sc(C(=O)N[C@H]3CCC[C@H]4CC[C@@H](C(=O)N5CC(c6cccnc6)C5)N4C3=O)cc2c1; < 100 nM
CCCOC(=O)[C@H](C)NP(=O)(Cc1ccc2sc(C(=O)N[C@H]3CCC[C@H]4CC[C@@H](C(=O)N5CC(c6cccnc6)C5)N4C3=O)cc2c1)OCC(F)(F)F (stereo partly shown); < 100 nM
CCCOC(=O)[C@H](C)NP(=O)(Cc1ccc2sc(C(=O)N[C@H]3C[C@@H](C)C[C@H]4CC[C@@H](C(=O)N5CC(c6cncnc6N6CCC6)C5)N4C3=O)cc2c1)Oc1ccccc1 (stereo partly shown); < 100 nM
CCCOC(=O)[C@H](C)NP(=O)(Cc1ccc2sc(C(=O)N[C@H]3CCC[C@H]4CC[C@@H](C(=O)N5CC(c6cncnc6C)C5)N4C3=O)cc2c1)Oc1ccccc1 (stereo partly shown); 1000 to 3000 nM
CC(C)(C)C(=O)SCCOP(=O)(OCCSC(=O)C(C)(C)C)C(F)(F)c1ccc2sc(C(=O)N[C@H]3CCC[C@H]4CC[C@@H](C(=O)N5CC(c6cnccc6F)C5)N4C3=O)cc2c1; < 100 nM

IC50 on pY705-STAT3 in PBMC (Homo sapiens) for CCCOC(=O)[C@H](C)N[P@@](=O)(Oc1ccccc1)[C@@H](F)c1ccc2sc(C(=O)N[C@H]3C[C@H](C)C[C@H]4CC[C@@H](C(=O)N5CC(c6cnccc6OC)C5)N4C3=O)cc2c1 (single isomer, unassigned) [Compound 1041] is < 100 nM

Tested on pY705-STAT3 in PBMC (Homo sapiens), the item CC[C@H](NP(=O)(Cc1ccc2sc(C(=O)N[C@H]3CCC[C@H]4CC[C@@H](C(=O)N5CC(c6cccnc6)C5)N4C3=O)cc2c1)Oc1ccccc1)C(=O)OCC(C)C (stereo partly shown) showed IC50 equal to < 100 nM

Tested system pY705-STAT3 in PBMC (Homo sapiens); IC50 recorded for CCCOC(=O)[C@H](C)NP(=O)(Cc1ccc2sc(C(=O)N[C@H]3CCC[C@H]4CC[C@@H](C(=O)N5CC(c6cccc(C#N)n6)C5)N4C3=O)cc2c1)Oc1ccccc1 (stereo partly shown) was < 100 nM

The molecule CCCOC(=O)[C@H](C)NP(=O)(Cc1ccc2sc(C(=O)N[C@H]3CCC[C@H]4CC[C@@H](C(=O)N5CC(c6c(F)ccnc6C)C5)N4C3=O)cc2c1)Oc1ccccc1 (stereo partly shown) , when measured on pY705-STAT3 in PBMC (Homo sapiens), yielded IC50 of 100 to 1000 nM

Let me check: CCCOC(=O)[C@H](C)NP(=O)(Cc1ccc2sc(C(=O)N[C@H]3CC[C@H](C)C[C@H]4CC[C@@H](C(=O)N5CC(c6cnccc6F)C5)N4C3=O)cc2c1)Oc1ccccc1 (stereo partly shown) , system pY705-STAT3 in PBMC (Homo sapiens), measured IC50 is < 100 nM

====

biological target: Recombinant STAT6 protein (STAT6 (W123-T658)) (Homo sapiens, UniProt P42226); construct: Recombinant STAT6 protein (STAT6 (W123-T658)); test: STAT6 Fluorescence Polarization (FP) Assay; type: binding; settings: STAT6 250 nM, probe 5-FAM-Ap[…]-NH2 2 nM, 45-minute incubation; read-out: STAT6 (FP assay IC50)
Sequence (P42226 123-658): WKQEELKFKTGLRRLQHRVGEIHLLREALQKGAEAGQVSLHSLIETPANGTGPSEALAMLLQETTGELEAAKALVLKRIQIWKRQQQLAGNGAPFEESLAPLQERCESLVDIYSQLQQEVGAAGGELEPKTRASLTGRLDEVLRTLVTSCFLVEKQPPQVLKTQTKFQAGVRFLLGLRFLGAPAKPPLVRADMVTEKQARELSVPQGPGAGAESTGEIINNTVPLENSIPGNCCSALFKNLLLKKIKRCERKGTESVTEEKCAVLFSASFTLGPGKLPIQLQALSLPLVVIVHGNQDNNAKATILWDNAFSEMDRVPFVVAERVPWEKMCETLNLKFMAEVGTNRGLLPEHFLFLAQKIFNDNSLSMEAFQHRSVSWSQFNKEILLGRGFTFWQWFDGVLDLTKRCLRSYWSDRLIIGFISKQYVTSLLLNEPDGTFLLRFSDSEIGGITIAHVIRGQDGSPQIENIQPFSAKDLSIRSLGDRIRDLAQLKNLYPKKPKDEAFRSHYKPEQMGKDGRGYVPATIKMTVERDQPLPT
Readout Label: IC50

N#C[C@@H]1CN(C(=O)[C@@H]2CC[C@@H]3CCCCC[C@H](NC(=O)c4cc5cc(C(F)(F)P(=O)(O)O)ccc5s4)C(=O)N32)C[C@H]1c1ccccc1 (mixture of isomers); ≤ 300 nM
N#C[C@@H]1CN(C(=O)[C@@H]2CC[C@@H]3CCC[C@H](NC(=O)c4cc5cc(C(F)(F)P(=O)(O)O)ccc5s4)C(=O)N32)C[C@H]1c1ccccc1 (relative stereo); ≤ 300 nM

API: the following record is the query input.
# IC50 of N#C[C@@H]1CN(C(=O)[C@@H]2CC[C@@H]3CCCC[C@H](NC(=O)c4cc5cc([C@@H](F)P(=O)(O)O)ccc5s4)C(=O)N32)C[C@H]1c1ccccc1 (single isomer, unassigned) = ≤ 300 nM

====

biological target: Recombinant STAT3 protein (STAT3 (G127-I722)) (Homo sapiens); construct: Recombinant STAT3 protein (STAT3 (G127-I722)); assay: STAT3 Fluorescence Polarization (FP) Assay; format: binding; details: STAT3 25 nM, probe 5-FAM-GpYLPQTV-NH2 2 nM, 45-minute incubation; read-out: STAT3 (FP assay IC50)
pIC50: −log10 of the molar value.
pIC50 values, listed per item

Use the examples below as a reference point.
N#C[C@@H]1CN(C(=O)[C@@H]2CC[C@@H]3CCCC[C@H](NC(=O)c4cc5cc([C@@H](F)P(=O)(O)O)ccc5s4)C(=O)N32)C[C@H]1c1ccccc1 (single isomer, unassigned); 5.00 to 6.00
O=C(N[C@H]1CCCC[C@H]2CC[C@@H](C(=O)N3CCc4c(cc[nH]c4=O)C3)N2C1=O)c1cc2cc(C(F)(F)P(=O)(O)O)ccc2s1; 5.00 to 6.00

Continue with the molecule presented below.
Form field, pIC50 with Recombinant STAT3 protein (STAT3 (G127-I722)) (Homo sapiens), item `O=C(/C=C/c1ccc(C(F)(F)P(=O)(O)O)cc1)N[C@H]1CCC[C@H]2CC[C@@H](C(=O)Nc3ccc(-c4ccccc4)cc3)N2C1=O` : < 5.00

====

target: Recombinant STAT3 protein (STAT3 (G127-I722)) (Homo sapiens, UniProt P40763); construct: Recombinant STAT3 protein (STAT3 (G127-I722)); experiment: STAT3 Fluorescence Polarization (FP) Assay; type: binding; conditions: STAT3 (G127-I722) 25 nM, probe 5-FAM-GpYLPQTV-NH2 2 nM, 45-minute incubation; read-out: STAT3 (FP assay IC50 class)
Sequence (P40763 127-722): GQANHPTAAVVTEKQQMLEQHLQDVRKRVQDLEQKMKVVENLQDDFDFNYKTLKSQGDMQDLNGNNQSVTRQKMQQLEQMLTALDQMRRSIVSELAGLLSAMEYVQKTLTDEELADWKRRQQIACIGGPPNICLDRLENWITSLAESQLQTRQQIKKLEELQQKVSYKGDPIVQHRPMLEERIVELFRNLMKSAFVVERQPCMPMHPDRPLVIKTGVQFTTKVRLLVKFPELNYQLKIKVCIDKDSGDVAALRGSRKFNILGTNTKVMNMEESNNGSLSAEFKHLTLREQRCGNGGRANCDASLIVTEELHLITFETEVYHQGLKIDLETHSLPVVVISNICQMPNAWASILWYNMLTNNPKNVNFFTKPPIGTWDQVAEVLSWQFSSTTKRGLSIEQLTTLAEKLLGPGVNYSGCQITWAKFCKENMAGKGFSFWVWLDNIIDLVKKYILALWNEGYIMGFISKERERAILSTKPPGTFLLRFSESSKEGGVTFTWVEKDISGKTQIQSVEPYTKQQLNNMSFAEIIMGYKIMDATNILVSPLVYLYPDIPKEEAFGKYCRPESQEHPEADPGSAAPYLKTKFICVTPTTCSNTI
pIC50: −log10 of the molar value.
Readout Label: pIC50

Worked examples, 5 molecules total:
COc1ccncc1C1CN(C(=O)[C@@H]2CC[C@@H]3CCC[C@H](NC(=O)c4cc5cc([C@H](F)P(=O)(O)O)ccc5s4)C(=O)N32)C1 (single isomer, unassigned); > 7.00
COC1(c2cnccc2C)CN(C(=O)[C@@H]2CC[C@@H]3CCCC[C@H](NC(=O)c4cc5cc(C(F)(F)P(=O)(O)O)ccc5s4)C(=O)N32)C1; 6.00 to 7.00
Cn1cnc2ncc(CNC(=O)[C@@H]3CC[C@@H]4CCC[C@H](NC(=O)c5cc6cc(C(F)(F)P(=O)(O)O)ccc6s5)C(=O)N43)cc21; 6.00 to 7.00
O=C(N[C@H]1CCC[C@H]2CC[C@@H](C(=O)N3CC(c4cnccc4O)C3)N2C1=O)c1cc2cc(CP(=O)(O)O)ccc2s1; > 7.00
COc1c(C2CN(C(=O)[C@@H]3CC[C@@H]4CCC[C@H](NC(=O)c5cc6cc([C@@H](F)P(=O)(O)O)ccc6s5)C(=O)N43)C2)ccnc1Cl (single isomer, unassigned); 6.00 to 7.00

Please fill in: pIC50 reported for `O=C(N[C@H]1CCCC[C@H]2CC[C@@H](C(=O)NCc3cnc4[nH]ncc4c3)N2C1=O)c1cc2cc(C(F)(F)P(=O)(O)O)ccc2s1` = 6.00 to 7.00

GET /value?item= `Cc1ccnnc1C1CN(C(=O)[C@@H]2CC[C@@H]3CCC[C@H](NC(=O)c4cc5cc(C(F)(F)P(=O)(O)O)ccc5s4)C(=O)N32)C1` &field=pIC50 returns 6.00 to 7.00
